test.system: PDGFRβ (Homo sapiens)
Sequence (P09619 33-1106): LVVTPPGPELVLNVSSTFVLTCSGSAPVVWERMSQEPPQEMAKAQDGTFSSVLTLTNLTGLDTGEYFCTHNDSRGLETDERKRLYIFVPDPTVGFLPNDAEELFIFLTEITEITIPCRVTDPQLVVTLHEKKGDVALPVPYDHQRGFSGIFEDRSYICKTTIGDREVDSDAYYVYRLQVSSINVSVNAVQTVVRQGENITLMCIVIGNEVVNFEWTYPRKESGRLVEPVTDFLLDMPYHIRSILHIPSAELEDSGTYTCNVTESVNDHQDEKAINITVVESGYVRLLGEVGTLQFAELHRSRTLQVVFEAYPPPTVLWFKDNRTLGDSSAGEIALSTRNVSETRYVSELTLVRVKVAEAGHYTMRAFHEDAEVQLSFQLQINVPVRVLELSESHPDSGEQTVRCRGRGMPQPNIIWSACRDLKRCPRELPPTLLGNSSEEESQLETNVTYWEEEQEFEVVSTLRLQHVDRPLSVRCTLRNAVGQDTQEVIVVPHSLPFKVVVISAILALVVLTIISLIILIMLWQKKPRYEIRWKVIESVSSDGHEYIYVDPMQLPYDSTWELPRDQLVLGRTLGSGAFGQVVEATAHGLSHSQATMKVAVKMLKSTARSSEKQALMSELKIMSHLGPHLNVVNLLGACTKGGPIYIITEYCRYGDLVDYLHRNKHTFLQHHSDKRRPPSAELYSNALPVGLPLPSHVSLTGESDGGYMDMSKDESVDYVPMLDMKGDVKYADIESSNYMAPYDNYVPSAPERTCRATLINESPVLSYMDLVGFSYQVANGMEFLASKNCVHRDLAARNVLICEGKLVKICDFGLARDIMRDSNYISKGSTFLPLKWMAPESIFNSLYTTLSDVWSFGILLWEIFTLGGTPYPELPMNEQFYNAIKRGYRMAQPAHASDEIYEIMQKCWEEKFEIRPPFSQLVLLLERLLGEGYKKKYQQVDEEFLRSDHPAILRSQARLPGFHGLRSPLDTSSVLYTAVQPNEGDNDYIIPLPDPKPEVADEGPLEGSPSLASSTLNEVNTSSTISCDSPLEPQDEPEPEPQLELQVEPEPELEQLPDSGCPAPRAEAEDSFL
pIC50: −log10 of the molar value.
metric: pIC50

CCN(CC)CCN1Cc2[nH]c(/C=C3\C(=O)Nc4ccc(I)cc43)c(C)c2C1=O	7.53
CCN(CC)CCN1Cc2[nH]c(/C=C3\C(=O)Nc4ccc(Br)cc43)c(C)c2C1=O	7.79

====

test.system: VEGFR-2 (Homo sapiens, UniProt P35968)
Construct: purchased Reaction Biology Corporation
Sequence (P35968 20-1356): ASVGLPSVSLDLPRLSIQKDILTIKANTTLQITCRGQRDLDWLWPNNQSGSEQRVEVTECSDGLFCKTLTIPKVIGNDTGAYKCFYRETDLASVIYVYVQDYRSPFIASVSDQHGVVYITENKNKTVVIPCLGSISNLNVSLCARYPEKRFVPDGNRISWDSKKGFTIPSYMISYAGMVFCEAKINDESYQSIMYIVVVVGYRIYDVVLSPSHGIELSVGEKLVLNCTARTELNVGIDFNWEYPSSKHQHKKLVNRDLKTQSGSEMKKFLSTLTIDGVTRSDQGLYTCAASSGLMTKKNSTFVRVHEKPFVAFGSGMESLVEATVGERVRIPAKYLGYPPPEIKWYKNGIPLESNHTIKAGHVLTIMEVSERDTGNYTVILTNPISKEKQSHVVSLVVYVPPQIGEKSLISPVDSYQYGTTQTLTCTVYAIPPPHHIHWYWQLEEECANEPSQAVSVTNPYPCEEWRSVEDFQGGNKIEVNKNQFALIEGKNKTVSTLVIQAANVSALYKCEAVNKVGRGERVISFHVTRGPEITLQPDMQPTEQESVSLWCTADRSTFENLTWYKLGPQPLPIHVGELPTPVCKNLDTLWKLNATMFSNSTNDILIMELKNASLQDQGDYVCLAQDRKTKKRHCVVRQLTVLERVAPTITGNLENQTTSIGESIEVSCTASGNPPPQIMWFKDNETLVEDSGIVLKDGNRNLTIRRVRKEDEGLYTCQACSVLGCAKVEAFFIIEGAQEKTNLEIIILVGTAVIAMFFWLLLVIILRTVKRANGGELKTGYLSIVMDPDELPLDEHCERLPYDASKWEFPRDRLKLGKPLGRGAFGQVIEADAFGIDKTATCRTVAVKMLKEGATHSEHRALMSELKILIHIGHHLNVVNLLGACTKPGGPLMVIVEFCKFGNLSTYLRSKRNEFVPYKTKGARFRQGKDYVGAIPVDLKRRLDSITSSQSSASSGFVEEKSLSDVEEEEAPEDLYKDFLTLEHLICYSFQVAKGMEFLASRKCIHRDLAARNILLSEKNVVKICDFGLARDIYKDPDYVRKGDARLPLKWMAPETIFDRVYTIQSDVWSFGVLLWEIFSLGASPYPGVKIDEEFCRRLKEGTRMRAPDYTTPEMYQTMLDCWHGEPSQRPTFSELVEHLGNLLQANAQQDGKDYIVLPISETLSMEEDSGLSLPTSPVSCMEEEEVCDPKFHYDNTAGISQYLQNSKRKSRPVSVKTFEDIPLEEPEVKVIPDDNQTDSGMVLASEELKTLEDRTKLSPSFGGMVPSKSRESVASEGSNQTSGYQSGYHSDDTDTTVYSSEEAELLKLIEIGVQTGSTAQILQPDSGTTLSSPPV
assay.overview: In vitro kinase assay (HotSpot, 33P)
Format: biochemical
measurement.setup: 50 nM compound, ATP 10.0 μM
Experimental: Briefly, specific kinase and substrate and required cofactors were prepared in reaction buffer. Test compounds were added into the reaction, after 20 min, a mixture of ATP (Sigma, St. Louis, MO, USA) and ^33P ATP (Perkin Elmer, Waltham, MA, USA) was added to make a final concentration of 10.0 μM. Reactions were stood at room temperature for 120 min, and spot the reactions onto P81 ion exchange filter paper (Whatman Inc., Piscataway, NJ, USA). […]
metric: inhibition at 0.05 µM (%)

CCN(CC)CCN1Cc2[nH]c(/C=C3\C(=O)Nc4ccc(Br)cc43)c(C)c2C1=O [Compound 11]	64
CCN(CC)CCN1Cc2[nH]c(/C=C3\C(=O)Nc4ccc(Cl)cc43)c(C)c2C1=O [Compound 10]	58
CCN(CC)CCN1Cc2[nH]c(/C=C3\C(=O)Nc4ccc(F)cc43)c(C)c2C1=O [Compound 9]	35
CCN(CC)CCN1Cc2[nH]c(/C=C3\C(=O)Nc4ccccc43)c(C)c2C1=O [Compound 8]	56
CCN(CC)CCN1Cc2[nH]c(/C=C3\C(=O)Nc4ccc(I)cc43)c(C)c2C1=O [Compound 12]	58

====

Tested on: HCT116
assay.overview: Cell proliferation assay (MTT)
Assay type: cell-based, human
measurement.setup: relative to Detroit 551 normal fibroblasts
metric: Selective Index (SI) HCT116

CCN(CC)CCN1Cc2[nH]c(/C=C3\C(=O)Nc4ccc(F)cc43)c(C)c2C1=O	>3.4
CCN(CC)CCN1Cc2[nH]c(/C=C3\C(=O)Nc4ccc(I)cc43)c(C)c2C1=O	21.93
CCN(CC)CCN1Cc2[nH]c(/C=C3\C(=O)Nc4ccccc43)c(C)c2C1=O	>2.35
CCN(CC)CCN1Cc2[nH]c(/C=C3\C(=O)Nc4ccc(Cl)cc43)c(C)c2C1=O	>3.23
CCN(CC)CCN1Cc2[nH]c(/C=C3\C(=O)Nc4ccc(Br)cc43)c(C)c2C1=O	>9.52

====

Reported inhibition at 1 µM is given for each of the following molecules.
test.system: aurora A (Homo sapiens, UniProt O14965)
Construct: purchased Reaction Biology Corporation
Sequence (O14965 whole entry): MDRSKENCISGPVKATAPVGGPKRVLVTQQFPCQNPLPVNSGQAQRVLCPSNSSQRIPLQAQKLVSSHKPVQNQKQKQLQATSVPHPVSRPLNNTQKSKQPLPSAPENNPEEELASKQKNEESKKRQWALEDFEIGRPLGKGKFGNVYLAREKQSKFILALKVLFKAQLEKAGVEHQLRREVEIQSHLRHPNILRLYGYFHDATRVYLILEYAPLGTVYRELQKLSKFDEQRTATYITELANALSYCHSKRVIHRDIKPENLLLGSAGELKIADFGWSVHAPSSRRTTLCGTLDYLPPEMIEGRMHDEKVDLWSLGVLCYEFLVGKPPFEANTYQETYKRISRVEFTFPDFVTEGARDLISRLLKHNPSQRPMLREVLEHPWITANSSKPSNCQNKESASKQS
assay.overview: In vitro kinase assay (HotSpot, 33P)
Assay type: biochemical
measurement.setup: 1.0 μM compound, ATP 10.0 μM
metric: inhibition at 1 µM (%)

CCN(CC)CCN1Cc2[nH]c(/C=C3\C(=O)Nc4ccccc43)c(C)c2C1=O [Compound 8]	95.9
CCN(CC)CCN1Cc2[nH]c(/C=C3\C(=O)Nc4ccc(F)cc43)c(C)c2C1=O [Compound 9]	93.1
CCN(CC)CCN1Cc2[nH]c(/C=C3\C(=O)Nc4ccc(Cl)cc43)c(C)c2C1=O [Compound 10]	93.7
CCN(CC)CCN1Cc2[nH]c(/C=C3\C(=O)Nc4ccc(Br)cc43)c(C)c2C1=O [Compound 11]	93.1
CCN(CC)CCN1Cc2[nH]c(/C=C3\C(=O)Nc4ccc(I)cc43)c(C)c2C1=O [Compound 12]	92.9
